These data points were gathered from patent US20240301023A1.

target: Mu opioid receptor (MOR); experiment: cell-based or functional assay
Sequence (P35372 whole entry): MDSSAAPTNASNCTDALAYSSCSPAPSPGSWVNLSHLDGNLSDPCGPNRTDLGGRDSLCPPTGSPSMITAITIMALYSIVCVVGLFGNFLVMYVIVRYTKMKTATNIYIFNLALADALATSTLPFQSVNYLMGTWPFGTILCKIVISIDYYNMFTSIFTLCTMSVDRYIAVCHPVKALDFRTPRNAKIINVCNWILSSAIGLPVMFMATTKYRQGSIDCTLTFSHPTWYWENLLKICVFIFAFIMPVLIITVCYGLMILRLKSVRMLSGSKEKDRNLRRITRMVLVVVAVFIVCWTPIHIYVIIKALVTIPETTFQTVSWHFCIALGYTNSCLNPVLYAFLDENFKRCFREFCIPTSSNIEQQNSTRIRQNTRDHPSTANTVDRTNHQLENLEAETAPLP
Square brackets hold non-standard residues; d marks the D form. Ends that are not written are not given here. Phe(4-NO2) = N[C@@H](Cc1ccc([N+](=O)[O-])cc1)C(=O)O; Api = NC1(C(=O)O)CCNCC1; GABA = NCCCC(=O)O; Sar = CNCC(=O)O
For each record, check the reported cAMP assay (ALPHAScreen), result at 10 µM peptide: if it is below 4 write condition met, else write condition not met.

Previously resolved entries follow.
binder	group label
[dF][dF][dL][dK][Api]-OH (N-terminus assumed; SMILES CC(C)C[C@@H](NC(=O)[C@@H](Cc1ccccc1)NC(=O)[C@H](N)Cc1ccccc1)C(=O)N[C@H](CCCCN)C(=O)NC1(C(=O)O)CCNCC1) [CR845 (SEQ ID NO. 35: DPhe-DPhe-DLeu-DLys-Cap-CO2H)]	condition not met
H-F[Sar][Phe(4-NO2)]L[dR][dR]-NH2 (SMILES CC(C)C[C@H](NC(=O)[C@H](Cc1ccc([N+](=O)[O-])cc1)NC(=O)CN(C)C(=O)[C@@H](N)Cc1ccccc1)C(=O)N[C@H](CCCNC(=N)N)C(=O)N[C@H](CCCNC(=N)N)C(N)=O) [SEQ ID NO. 9: NH2-Phe-Sar-(4-NO2)Phe-Leu-DArg-DArg-NH2]	condition met
H-Y[Sar][Phe(4-NO2)]LR[dR]-NH2 [SEQ ID NO. 4: NH2-Tyr-Sar-(4-NO2)Phe-Leu-Arg-DArg-NH2]	condition met

Record H-Y[GABA]FLRR-NH2 (SMILES CC(C)C[C@H](NC(=O)[C@H](Cc1ccccc1)NC(=O)CCCNC(=O)[C@@H](N)Cc1ccc(O)cc1)C(=O)N[C@@H](CCCNC(=N)N)C(=O)N[C@@H](CCCNC(=N)N)C(N)=O) [SEQ ID NO. 1: NH2-Tyr-Gaba-Phe-Leu-Arg-Arg-NH2] : is its cAMP assay (ALPHAScreen), result at 10 µM peptide strictly below 4?
condition not met

Next up: H-Y[Sar]FL[dR][dR]-NH2 [SEQ ID NO. 7: NH2-Tyr-Sar-Phe-Leu-DArg-DArg-NH2]
condition not met
